B1: Pituitary-specific positive transcription factor 1, residues 130 to 198; numbered along this chain, P28069 (parent)
chain: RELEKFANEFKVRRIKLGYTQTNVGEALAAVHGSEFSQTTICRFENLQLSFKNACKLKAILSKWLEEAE

variants of: B1; assay: abundance fitness (aPCA) (normalised: wild type 0, dead -1); higher = more abundant; growth selection in yeast, the domain comes from the species named; details: Homo sapiens
Binning scheme for abundance fitness: lower level (below -0.5), middle level (-0.5 to below -0.2), upper level (-0.2 or more)

Consider the following illustrative entries.
| sequence-entry | class-assignment |
| --- | --- |
| RELEKFANEFKVRRIKLGYTQTNVGEALAAVHGSEFSQTTKCRFENLQLSFKNACKLKAILSKWLEEAE [I41K] | lower level |
| RELEKFANEFKVRRIKLGYTQTNVGEALAAVHGSEFSQTTICRFENLQLSFGNACKLKAILSKWLEEAE [K52G] | upper level |
| RELEKFANEFKVRRIKLGYTQTNVGEALAAVHGSEFSQTTICRFENLQLSFKNACKLKAILSKWLETAE [E67T] | middle level |
| RELEKFANEFKVRRIKLGYTQTNVGEANAAVHGSEFSQTTICRFENLQLSFKNACKLKAILSKWLEEAE [L28N] | lower level |
| RELEKFANEFKVRRIKLGYTQTNVGEARAAVHGSEFSQTTICRFENLQLSFKNACKLKAILSKWLEEAE [L28R] | lower level |
| RELELFANEFKVRRIKLGYTQTNVGEALAAVHGSEFSQTTICRFENLQLSFKNACKLKAILSKWLEEAE [K5L] | middle level |
| RELEKFANEFKVRRIKLGYTQTNVGEALAAVHGSSFSQTTICRFENLQLSFKNACKLKAILSKWLEEAE [E35S] | upper level |
| RELEKFANEFKVRRIKLGYTQTNVGEALAAVHGKEFSQTTICRFENLQLSFKNACKLKAILSKWLEEAE [S34K] | upper level |
| RELEKFAIEFKVRRIKLGYTQTNVGEALAAVHGSEFSQTTICRFENLQLSFKNACKLKAILSKWLEEAE [N8I] | upper level |
| RILEKFANEFKVRRIKLGYTQTNVGEALAAVHGSEFSQTTICRFENLQLSFKNACKLKAILSKWLEEAE [E2I] | lower level |

-- ask Which class is correct for the following variant? RELEKFANEFKVRRIKLGYTQTNVGEACAAVHGSEFSQTTICRFENLQLSFKNACKLKAILSKWLEEAE [L28C]
-- reply lower level

-- ask # bin lookup: classify RELEKFANEFKVRRIKLGYTQTNVGEALAAVHGSEFSQTTICSFENLQLSFKNACKLKAILSKWLEEAE [R43S] by its abundance fitness
-- reply middle level

-- ask Lab log: RELEKFANEFKVRRIKLGYTQTNVGEALAAVHGSEFSQTTICRFENLQLSFKNACKLKAILSKWLVEAE [E66V] — assign abundance fitness category
-- reply upper level

-- ask Bin this entry: RELEKFANEFKVRRIKLGYTQTNVGEALAAVHGSEFSQTTLCRFENLQLSFKNACKLKAILSKWLEEAE [I41L]
-- reply lower level

-- ask Which of the defined bands does the recorded abundance fitness of RELEKFANEFKVRRIKLGYTQTNVGEALAAVHGSEFSQTTICRFENLQLSFKNACWLKAILSKWLEEAE [K56W] sit within?
-- reply lower level

-- ask Which bin, given its abundance fitness, does RELEKFANEFKVRRIKLGYTQTNVGEALAAVHGSEFSQTTICRFENLQLSFKNACKLKAILAKWLEEAE [S62A] occupy?
-- reply upper level

-- ask Returns: class label. Input: RELEKRANEFKVRRIKLGYTQTNVGEALAAVHGSEFSQTTICRFENLQLSFKNACKLKAILSKWLEEAE [F6R]
-- reply lower level

-- ask Into which bin does this variant go? RELEKFAWEFKVRRIKLGYTQTNVGEALAAVHGSEFSQTTICRFENLQLSFKNACKLKAILSKWLEEAE [N8W]
-- reply middle level

-- ask Please classify: RELEKFANEFKVRRIKLGYTHTNVGEALAAVHGSEFSQTTICRFENLQLSFKNACKLKAILSKWLEEAE [Q21H]
-- reply upper level

-- ask Sort RELEKFANEFKVRRIKLGYTQTNVGEALAAVHGSEFSQTTICRFENLQLSFKNWCKLKAILSKWLEEAE [A54W] into one of the categories.
-- reply middle level

-- ask Which band does RELEKFANEFKVRRIKLIYTQTNVGEALAAVHGSEFSQTTICRFENLQLSFKNACKLKAILSKWLEEAE [G18I] fall in?
-- reply lower level

-- ask Which class does RELEKFANEFKVRRIKLGYTQTNVGEALAAVHGSEFSQTTICRFENLQLSFKNMCKLKAILSKWLEEAE [A54M] fall in?
-- reply upper level
